# credit: patent US6858638B2

MEASURED PROPERTY: melting point (°C)

                              line_notation  recorded_value
0  Nc1n[nH]c2ccc(NS(=O)(=O)c3c(Cl)cccc3Cl)cc12             250
1  Cc1n[nH]c2ccc(NS(=O)(=O)c3ccc(Cl)c(Cl)c3)cc12             184
2  CS(=O)(=O)c1ccccc1S(=O)(=O)Nc1ccc2[nH]nc(-c3csc4ccccc34)c2c1             235
3  CS(=O)(=O)c1ccccc1S(=O)(=O)Nc1ccc2[nH]nc(C(=O)Nc3ccccc3)c2c1             258
4  CS(=O)(=O)c1ccccc1S(=O)(=O)Nc1ccc2[nH]nc(Sc3ccccc3)c2c1             195
5  CS(=O)(=O)c1ccccc1S(=O)(=O)Nc1ccc2[nH]nc(-c3cc4ccccc4s3)c2c1             270
6  O=[N+]([O-])c1cccc(S(=O)(=O)Nc2ccc3[nH]nc(-c4ccccc4)c3c2)c1             228
7  CS(=O)(=O)c1ccccc1S(=O)(=O)Nc1ccc2[nH]nc(-c3cccc(N)c3)c2c1             220

====

TARGET ENTITY: human KDR enzyme (Homo sapiens)
Construct: The cytoplasmic domain of the human KDR enzyme; GST; made in house; host or cells: SF21 insect cells (baculovirus)
Sequence (P35968 786-1356 limits assumed): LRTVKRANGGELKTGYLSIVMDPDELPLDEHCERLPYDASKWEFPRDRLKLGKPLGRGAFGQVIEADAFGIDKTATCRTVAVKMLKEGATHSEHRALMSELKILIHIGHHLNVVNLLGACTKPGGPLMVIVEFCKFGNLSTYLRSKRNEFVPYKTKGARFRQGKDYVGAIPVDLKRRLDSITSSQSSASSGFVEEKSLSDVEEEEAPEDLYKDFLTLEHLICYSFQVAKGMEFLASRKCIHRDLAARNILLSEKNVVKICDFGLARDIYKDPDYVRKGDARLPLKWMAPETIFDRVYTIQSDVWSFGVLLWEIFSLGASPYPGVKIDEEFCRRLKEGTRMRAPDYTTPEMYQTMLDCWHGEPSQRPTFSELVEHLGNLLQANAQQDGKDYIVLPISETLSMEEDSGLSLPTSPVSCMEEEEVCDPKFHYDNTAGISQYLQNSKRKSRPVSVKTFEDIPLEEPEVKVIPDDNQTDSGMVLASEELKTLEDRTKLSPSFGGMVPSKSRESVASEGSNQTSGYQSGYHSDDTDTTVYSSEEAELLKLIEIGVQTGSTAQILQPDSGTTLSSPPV
ASSAY COMMENT: KDR substrate (PLCγ) phosphorylation, scintillation assay
Format: biochemical
TEST SETTINGS: 10 μM; read-out: KDR % inhib at 10 μM
MEASURED PROPERTY: inhibition at 10 µM (%)

Here's what some known entries look like.
                              line_notation  unit_of_measure  recorded_value
0  O=S(=O)(Nc1ccc2[nH]nc(-c3ccccc3)c2c1)c1cccc(C(F)(F)F)c1                %              94
1  O=S(=O)(Nc1ccc2[nH]nc(-c3cc4ccccc4[nH]3)c2c1)c1cccc(F)c1                %              99

(A) CS(=O)(=O)c1ccccc1S(=O)(=O)Nc1ccc2[nH]nc(-c3ccc4ccccc4c3)c2c1
(B) N#Cc1ccc(S(=O)(=O)Nc2ccc3[nH]nc(-c4ccccc4)c3c2)cc1
(C) CSc1ccccc1-c1n[nH]c2ccc(NS(=O)(=O)c3ccccc3S(C)(=O)=O)cc12
INPUT: # rank by inhibition at 10 µM, ascending (min first) To answer, arrange all of the labels according to the requested order.
OUTPUT: C, A, B
(C: 25%, A: 38%, B: 87%)

(I) CS(=O)(=O)c1ccccc1S(=O)(=O)Nc1ccc2[nH]nc(C#N)c2c1
(II) Cc1ccc(-c2n[nH]c3ccc(NS(=O)(=O)c4ccccc4S(C)(=O)=O)cc23)cc1F
INPUT: Which entry shows the lesser value of inhibition at 10 µM here, I or II ? Write down the label of the entry you select.
OUTPUT: I

(A) CS(=O)(=O)c1ccccc1S(=O)(=O)Nc1ccc2[nH]nc(-c3ccc(C#N)cc3)c2c1
(B) CS(=O)(=O)c1ccccc1S(=O)(=O)Nc1ccc2[nH]nc(-c3cccc(C(=O)O)c3)c2c1
INPUT: Which of the two items, A and B , has the greater recorded inhibition at 10 µM? Write the label of whichever entry you select.
OUTPUT: B
(B: 82%, A: 32%)

(1) Cc1c(S(=O)(=O)Nc2ccc3[nH]nc(-c4ccccc4)c3c2)sc2ccc(Cl)cc12
(2) CS(=O)(=O)c1ccccc1S(=O)(=O)Nc1ccc2[nH]nc(-c3cc(Cl)cc(Cl)c3)c2c1
(3) O=S(=O)(Nc1ccc2[nH]nc(-c3cc4ccccc4[nH]3)c2c1)c1cccs1
INPUT: hey, can you rank those molecules up there by inhibition at 10 µM? biggest number first please Output spec: a listing of the labels in the requested order.
OUTPUT: 3, 2, 1
